Tested on: LXFL 529 NSCLC
Test description: NCI tumour cell line growth inhibition, 48 h
Quantity: TGI

[
  {
    "Compound": "O=C(Nc1nc2ccc([N+](=O)[O-])cc2s1)C(=O)C(C(=O)c1ccccc1F)C1OC(=O)c2ccccc21 (stereo not given)",
    "TGI": "> 100 µM"
  },
  {
    "Compound": "O=c1[nH]cc(COCCCO)c(=O)[nH]1",
    "TGI": "> 100 µM"
  },
  {
    "Compound": "O=C1NC(=O)C2C(=O)NC(=O)C1C2c1c(Cl)cccc1Cl (stereo not given)",
    "TGI": "> 100 µM"
  },
  {
    "Compound": "COc1ccc2c(c1)C(=O)C1CC(=O)CCC21 (stereo not given)",
    "TGI": "> 100 µM"
  }
]

QUERY: What value of TGI has been recorded for this entry: Cc1ccc(-c2nnc(-c3nn(-c4ccccc4)c4nc5ccccc5nc34)o2)cc1
RESULT: 35.7 µM
